Reference source: patent US8377943B2

# assay-target: PTK2 (Homo sapiens)
# Sequence (Q05397 whole entry): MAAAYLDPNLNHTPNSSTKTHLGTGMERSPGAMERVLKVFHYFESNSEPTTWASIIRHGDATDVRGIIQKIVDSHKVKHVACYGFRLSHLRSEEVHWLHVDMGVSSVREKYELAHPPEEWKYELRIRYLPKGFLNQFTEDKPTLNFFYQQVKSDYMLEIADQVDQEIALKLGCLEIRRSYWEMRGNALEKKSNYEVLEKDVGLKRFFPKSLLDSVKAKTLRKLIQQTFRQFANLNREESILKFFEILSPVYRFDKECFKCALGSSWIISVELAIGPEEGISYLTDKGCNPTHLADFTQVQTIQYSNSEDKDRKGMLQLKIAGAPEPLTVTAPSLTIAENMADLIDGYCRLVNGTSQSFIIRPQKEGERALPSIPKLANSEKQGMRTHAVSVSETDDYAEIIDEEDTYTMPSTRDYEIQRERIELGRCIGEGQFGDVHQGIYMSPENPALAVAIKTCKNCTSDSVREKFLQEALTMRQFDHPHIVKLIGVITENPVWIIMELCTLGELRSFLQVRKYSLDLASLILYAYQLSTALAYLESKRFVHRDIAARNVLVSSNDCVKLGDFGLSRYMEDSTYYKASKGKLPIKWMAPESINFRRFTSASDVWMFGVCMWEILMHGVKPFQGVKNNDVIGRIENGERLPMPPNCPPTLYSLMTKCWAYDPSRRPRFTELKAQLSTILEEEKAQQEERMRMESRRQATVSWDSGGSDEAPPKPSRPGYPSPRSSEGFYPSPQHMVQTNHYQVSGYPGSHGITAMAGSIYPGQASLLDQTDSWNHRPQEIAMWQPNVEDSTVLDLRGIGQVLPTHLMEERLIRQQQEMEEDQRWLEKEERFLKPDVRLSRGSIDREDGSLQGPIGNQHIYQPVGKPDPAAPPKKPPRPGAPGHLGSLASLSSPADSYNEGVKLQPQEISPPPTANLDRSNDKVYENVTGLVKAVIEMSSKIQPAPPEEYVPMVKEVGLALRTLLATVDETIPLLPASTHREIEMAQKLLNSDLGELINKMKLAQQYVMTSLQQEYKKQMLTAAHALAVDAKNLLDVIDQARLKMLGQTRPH
# assay-explanation: PTK2 Enzyme Test (DELFIA assay, poly-Glu-Tyr substrate)
# run-conditions: active PTK2 enzyme, 50 μM ATP in ATP Mix, 1 h pre-incubation
Assign pIC50 to each entry below.
Numbers only, as −log10 of the molar value.

Below, 8 compounds whose answers are already recorded.
compound	assay-target	result
COc1cc(N2CCN(CC(=O)N(C)C)CC2)ccc1Nc1ncc(C(F)(F)F)c(NCc2ccc(F)cc2N(C)S(C)(=O)=O)n1 [Example 82]	PTK2 (Homo sapiens)	8.70
COc1cc(C(=O)NC2CCC(NS(C)(=O)=O)CC2)ccc1Nc1ncc(C(F)(F)F)c(NCc2ccc(C)cc2N(C)S(C)(=O)=O)n1 (centres unmarked) [Example 27]	PTK2 (Homo sapiens)	8.40
COc1cc(CNC(C)C)ccc1Nc1ncc(C(F)(F)F)c(NCc2ccc(C)cc2N(C)S(C)(=O)=O)n1 [Example 89]	PTK2 (Homo sapiens)	8.70
COc1cc(C(=O)N[C@H]2CC[C@H](N3C[C@@H](C)O[C@@H](C)C3)CC2)ccc1Nc1ncc(C(F)(F)F)c(NCc2ccc(C)cc2N(C)S(C)(=O)=O)n1 [Example 114]	PTK2 (Homo sapiens)	8.40
COc1ccc(CNc2nc(Nc3cc(F)c(C(=O)N[C@H]4CCN(C)C4)cc3OC)ncc2C(F)(F)F)c(N(C)S(C)(=O)=O)c1 [Example 29]	PTK2 (Homo sapiens)	8.70
COc1cc(C(=O)N[C@H]2CCN(C)C[C@H]2F)ccc1Nc1ncc(C(F)(F)F)c(NCc2ccc(C)cc2N(C)S(C)(=O)=O)n1 [Example 119]	PTK2 (Homo sapiens)	8.52
COc1cc(N2CCN(CC(=O)N3CCOCC3)CC2)ccc1Nc1ncc(C(F)(F)F)c(NCc2ccc(C)cc2N(C)S(C)(=O)=O)n1 [Example 42]	PTK2 (Homo sapiens)	8.40
COc1cc(C(=O)N[C@@H]2CCCN(C(C)C)C2)ccc1Nc1ncc(C(F)(F)F)c(NCc2ccc(C)cc2N(C)S(C)(=O)=O)n1 [Example 10]	PTK2 (Homo sapiens)	8.70

I would be grateful if you could provide pIC50 for each of the following entries.
1. COc1cc(C(=O)N[C@H]2CCN(C)C2)c(Cl)cc1Nc1ncc(C(F)(F)F)c(NCc2ccc(C)cc2N(C)S(C)(=O)=O)n1 [Example 120]
2. COc1cc(C(=O)NC2CCCN(C)C2)ccc1Nc1ncc(C(F)(F)F)c(NCc2ccc(C)cc2N(C)S(C)(=O)=O)n1 (centres unmarked) [Example 7]
3. CCNCc1ccc(Nc2ncc(C(F)(F)F)c(NCc3ccc(C)cc3N(C)S(C)(=O)=O)n2)c(OC)c1 [Example 66]
4. CCc1cc(C(=O)NC2CCN(C)CC2)ccc1Nc1ncc(C(F)(F)F)c(NCc2ccc(C)cc2N(C)S(C)(=O)=O)n1 [Example 50]
5. COc1cc(Nc2ncc(C(F)(F)F)c(NCc3ccc(C)cc3N(C)S(C)(=O)=O)n2)ccc1NC(C)=O [Example 103]

[A]
8.52
8.52
9.00
8.70
9.10

Please supply pIC50 for each of the following items, keeping them in order.
1. COc1cc(C(=O)NC2CCN(C(C)=O)CC2)ccc1Nc1ncc(C(F)(F)F)c(NCc2ccc(C)cc2N(C)S(C)(=O)=O)n1 [Example 9]
2. COCCNC(=O)c1ccc(Nc2ncc(C(F)(F)F)c(NCc3ccc(C)cc3N(C)S(C)(=O)=O)n2)c(OC)c1 [Example 14]
3. COc1cc(C(=O)N[C@H]2CCN(C)C2)c(F)cc1Nc1ncc(C(F)(F)F)c(NCc2ccc(C)cc2N(C)S(C)(=O)=O)n1 [Example 23]

[A]
[8.22, 8.40, 9.00]
